Kindly state cytotoxicity at 70.5 h for each of the entries shown.
Procedure text: Human HepG2 cell viability assay in 384 well format
Format: toxicity, cell-based
Set-up: dose 125 nL, time 70.5 hour; concentration not given beside the values
Condition description: HepG2 cells, read-out: Inhibition

So for O=C(c1ccc2[nH]nnc2c1)N1CC[C@H](O)[C@]2(CCCO2)C1 , the logged cytotoxicity at 70.5 h turned out to be -4.29%

// cytotoxicity at 70.5 h value for Cc1cc(C)n2c(CCCNS(=O)(=O)c3ccccc3)nnc2n1 : -7.9%

The recorded cytotoxicity at 70.5 h for entry CC(C)N1CCN(C)C2(CCN(C(=O)c3ccnnc3)CC2)C1=O equals -4.95%

// NC1CCCN(Cc2cccc(C(F)(F)F)c2)C1=O (stereo unspecified) : cytotoxicity at 70.5 h value = -7.1%

cytotoxicity at 70.5 h reported for this compound O=C(c1ccc2ccc(N3CCN(CC4CC4)CC3)n2c1)N1CCCO1 : -5.05%

Quick note, cytotoxicity at 70.5 h for Cn1cc(CN2CCn3c(CNC(=O)c4cccn4C)cnc3C2)cn1 landed at 4.31%

The compound listed as Cc1cnn(CC2CCCCN2CCCS(N)(=O)=O)c1 (stereo unspecified) shows cytotoxicity at 70.5 h equal to 33.5%

For record Cc1noc2ncc(S(=O)(=O)Nc3cc(C(C)(C)C)n[nH]3)cc12 the listed cytotoxicity at 70.5 h is -4.7%

Measured cytotoxicity at 70.5 h of O=C(c1ccnc(-n2ccnc2)c1)N1CCCC(n2ccnc2)C1 (stereo unspecified) : -15%

Sample Cc1nccc([C@@H]2C[C@@H]3CCN(Cc4ccco4)C[C@H]3O2)n1 ; cytotoxicity at 70.5 h observed: 12.2%

Field cytotoxicity at 70.5 h (entry NC1C=C(C(F)(F)F)NC=C1c1ccc(Cl)cc1 (stereo unspecified) ) reads 3.46%

Entry CC(C)c1cc(C2CCN(C(=O)Cn3cncn3)CC2)[nH]n1 ; cytotoxicity at 70.5 h = 43.3%

GET /value?item= Cc1ccsc1-c1nccn1CCS(=O)(=O)N1CCCC1 &field=cytotoxicity at 70.5 h returns 8.18%

// recorded cytotoxicity at 70.5 h for Cc1ncccc1CNCC1CCc2nnc(C(C)C)n2C1 (stereo unspecified) : -7.03%

cytotoxicity at 70.5 h in this record for O=C(CN(CC(O)c1ccc(F)cc1)C1CC1)NCc1cccs1 (stereo unspecified) : -114%

The reported cytotoxicity at 70.5 h of the compound COCCO[C@H]1CCN(C(=O)c2cnoc2C)[C@H]1Cc1cnn(C)c1 was -5.22%

The recorded cytotoxicity at 70.5 h for entry O=C(Cc1ccc(O)c(Cl)c1)N1CCCCC1CCn1cccn1 (stereo unspecified) equals -4.41%

// cytotoxicity at 70.5 h lookup, compound = COC(=O)N1CCN(C(=O)c2ccc(C)c(N3CCNC3=O)c2)CC1 , result: 14%

Lab note: Cc1c(C)n(-c2ccccn2)c2nc3c(c(N)c12)CCCC3 gave cytotoxicity at 70.5 h of -9.17%

So for COCCn1cc(C(=O)N2CCCC2c2ccncc2)c2ccccc21 (stereo unspecified) , the logged cytotoxicity at 70.5 h turned out to be -4.2%

Measured cytotoxicity at 70.5 h, CC(C)c1nccn1C(C)C(=O)NC1CCN(S(C)(=O)=O)CC1 (stereo unspecified) : 3.51%

// CC1CCCN(CCNC(=O)c2ccn(-c3ccccc3)n2)C1 (stereo unspecified) : cytotoxicity at 70.5 h value = -5.27%

What the record says about CN(C)Cc1cnn(-c2ccccc2C(=O)N(C)Cc2ccccc2)c1 : cytotoxicity at 70.5 h is -5.67%

So, Cc1cccc(C)c1NC(=O)CC(CN1CCN(C)CC1)C(=O)O (stereo unspecified) ? Its cytotoxicity at 70.5 h was -15.8%

Query CN(CCc1ccccc1)Cc1cc(C(=O)N2CCCC2(C)C)no1 yields cytotoxicity at 70.5 h of 8.4%

Documented cytotoxicity at 70.5 h of O=S(=O)(NCC(O)c1ccoc1)c1ccc(Cl)s1 (stereo unspecified) : 23%

The recorded cytotoxicity at 70.5 h for Cc1cc2[nH]c(CN3CCOC(c4ccc(F)cc4)C3)cc(=O)n2n1 (stereo unspecified) is -3.51%

Input Cc1nc(O)cc([C@@H]2CN(S(=O)(=O)N(C)C)C[C@H]2c2ccccc2F)n1 . Output cytotoxicity at 70.5 h: -8.96%

// O=C(CCc1cccs1)NCC1CCCN1c1cccnn1 (stereo unspecified) : cytotoxicity at 70.5 h value = 3.16%

Reported cytotoxicity at 70.5 h ( CCOc1ccnc(N2CCN(C(=O)CCc3cnn(C)c3)CC2)n1 ) = -4.83%

cytotoxicity at 70.5 h measured on COc1ccccc1-c1ccc(NCc2cn3c(n2)SCC3)nn1 = -7.12%

cytotoxicity at 70.5 h reading for CC(C)n1cc(CN(Cc2ccsc2)CC2CCCO2)cn1 (stereo unspecified) : -1.43%

So for COCC(=O)N1CC[C@@H](OCC2CC2)[C@@H]1Cc1cccnc1 , the logged cytotoxicity at 70.5 h turned out to be 0.787%

cytotoxicity at 70.5 h reading for O=C(c1cccs1)N1C[C@@H]2OCCN(CC3CCCO3)[C@@H]2C1 (stereo partly specified) : 1.09%

// CCc1nnc(CN2CCCC(c3cc(C(F)(F)F)[nH]n3)C2)o1 (stereo unspecified) : cytotoxicity at 70.5 h value = 0.217%

Lab book: cytotoxicity at 70.5 h of Cc1ccc(CN(Cc2ccncc2)C2CCN(C)CC2)s1 noted as 15.5%

The compound CC1CCN(C(=O)[C@@H]2CC[C@@H]3[C@@H](CCN3c3ncc(F)cn3)O2)CC1 showed cytotoxicity at 70.5 h equal to -2.26%

Memo: CC(C)n1nccc1CN1Cc2nccn2CC1c1ccccc1 (stereo unspecified) , reported cytotoxicity at 70.5 h: -7.71%

Item: CC(C)n1cnnc1CN1CCC2(CCCN(C3CCCCC3)C2=O)C1 (stereo unspecified) | cytotoxicity at 70.5 h: -2.59%

// cytotoxicity at 70.5 h value for CC(C)Cc1nc(COc2ccc(N(C)C(N)=O)cc2)no1 : -2.35%

Field cytotoxicity at 70.5 h (entry O=C(c1cc(C2CC2)on1)N1CCCC(n2cccn2)C1 (stereo unspecified) ) reads 23.8%

cytotoxicity at 70.5 h in this record for COCC(=O)N1CCN(C)C(=O)C(Cc2ccc(-c3cccs3)cc2)C1 (stereo unspecified) : -1.25%

Value of measured cytotoxicity at 70.5 h for the entry COC(=O)Cn1c(C)cc(=O)c2cc(F)ccc21 : -4.13%

The compound identified as Cc1ccccc1C(=O)NCC(O)c1ccc(F)c(F)c1 (stereo unspecified) registered its cytotoxicity at 70.5 h at -5.82%

cytotoxicity at 70.5 h recorded for this compound, CC(=O)NC(Cc1c[nH]c2cc(F)ccc12)C(=O)Nc1cnn(C)c1 (stereo unspecified) , is 1.79%

Entry Cc1nc(CSCCC(=O)NCc2ccc(N(C)C)cc2)cs1 , cytotoxicity at 70.5 h reported as -3.76%
